target: xanthine-oxidase (Bos taurus); assay: xanthine-oxidase inhibitory activity (pre-incubation 5 min, then 10 μM xanthine; Kalker); type: biochemical; conditions: Table I; phosphate buffer pH 7.5, 10 μM xanthine; read-out: IC50 (xanthine-oxidase inhibition) (converted)
Sequence (P80457 whole entry): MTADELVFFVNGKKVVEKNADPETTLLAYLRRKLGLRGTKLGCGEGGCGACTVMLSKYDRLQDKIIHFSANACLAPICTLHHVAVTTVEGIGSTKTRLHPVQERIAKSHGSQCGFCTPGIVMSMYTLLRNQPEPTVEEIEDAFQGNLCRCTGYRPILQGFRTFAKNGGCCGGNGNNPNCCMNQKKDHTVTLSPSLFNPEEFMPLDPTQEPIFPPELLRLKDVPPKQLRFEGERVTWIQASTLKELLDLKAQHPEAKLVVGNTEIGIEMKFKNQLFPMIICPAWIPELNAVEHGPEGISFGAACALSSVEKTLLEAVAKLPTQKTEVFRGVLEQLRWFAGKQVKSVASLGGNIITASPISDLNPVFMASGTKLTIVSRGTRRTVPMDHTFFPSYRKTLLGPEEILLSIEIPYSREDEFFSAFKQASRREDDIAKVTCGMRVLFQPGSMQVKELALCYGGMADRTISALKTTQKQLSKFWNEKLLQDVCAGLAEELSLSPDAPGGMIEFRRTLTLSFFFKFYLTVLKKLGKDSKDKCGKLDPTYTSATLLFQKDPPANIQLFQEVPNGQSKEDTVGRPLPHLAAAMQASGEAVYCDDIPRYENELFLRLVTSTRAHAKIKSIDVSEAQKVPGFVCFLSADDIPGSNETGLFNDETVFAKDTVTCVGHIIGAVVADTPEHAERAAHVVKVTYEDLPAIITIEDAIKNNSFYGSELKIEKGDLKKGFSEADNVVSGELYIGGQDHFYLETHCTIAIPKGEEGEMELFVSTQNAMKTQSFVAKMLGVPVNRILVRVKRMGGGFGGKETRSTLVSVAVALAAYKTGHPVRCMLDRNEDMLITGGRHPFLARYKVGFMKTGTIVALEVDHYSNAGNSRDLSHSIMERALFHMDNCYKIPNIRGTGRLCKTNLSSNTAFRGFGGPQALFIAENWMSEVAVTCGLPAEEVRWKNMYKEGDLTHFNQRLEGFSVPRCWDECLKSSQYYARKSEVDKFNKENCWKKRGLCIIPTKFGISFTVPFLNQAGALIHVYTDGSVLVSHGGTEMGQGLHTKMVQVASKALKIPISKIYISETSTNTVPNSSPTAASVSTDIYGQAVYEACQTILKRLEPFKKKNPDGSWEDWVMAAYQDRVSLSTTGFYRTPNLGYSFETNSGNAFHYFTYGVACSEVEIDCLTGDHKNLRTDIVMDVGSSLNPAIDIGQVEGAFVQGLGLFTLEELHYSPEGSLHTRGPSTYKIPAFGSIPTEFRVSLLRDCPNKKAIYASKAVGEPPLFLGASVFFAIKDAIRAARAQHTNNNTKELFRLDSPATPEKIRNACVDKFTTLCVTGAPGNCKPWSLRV
assay readout: IC50 (nM)

As a guide, the following entries are already answered.
compound	unit tag	IC50
O=Cc1nc(O)cc2c1[nH]c1ccccc12	nM	1790
COC(=O)c1ncc(O)c2c1[nH]c1ccccc12	nM	78400
OCc1nccc2c1[nH]c1ccccc12 [H H CH2 OH, 1-Hydroxymethyl-9H-Pyrido[3,4-b]Indole]	nM	21700
COC(=O)c1nccc2c1[nH]c1ccccc12 [H H COOCH3, 1-carbomethoxy-9H-pyrido[3,4-b]indole]	nM	177000
O=Cc1ncc(O)c2c1[nH]c1ccccc12	nM	3.06

[1] OCc1ncc(O)c2c1[nH]c1ccccc12
[2] O=Cc1nccc2c1[nH]c1ccccc12
[3] O=C(O)c1ncc(O)c2c1[nH]c1ccccc12
[4] CC(=O)Oc1cnc(C=O)c2[nH]c3ccccc3c12
Prompt line: List the 4 entries from lowest IC50 to highest IC50 value. Answer with the labels in sequence, matching the requested order.
Response line: 4, 1, 3, 2
(4: 6.69 nM, 1: 336 nM, 3: 1100 nM, 2: 4080 nM)
